Give measured remaining at 2 h for each item. Keep answers brief.
EXPERIMENT DESCRIPTION: Metabolic stability in human plasma assessed as compound remaining measured at 2 hrs
Type: ADME, cell-free
TEST CONTEXT: read-out: Stability

Query string: Data request, read-out remaining at 2 h, for CC(=O)N[C@H]1Cc2ccc(cc2)OCCCC[C@@H](C(=O)N[C@@H](CCCNC(=N)N)C(=O)c2nc3ccccc3s2)NC(=O)[C@H](CC(C)C)NC1=O
Result string: 79%

Query string: Data request, read-out remaining at 2 h, for CC(=O)N[C@H]1C/C=C/COc2ccc(cc2)C[C@@H](C(=O)N[C@@H](CCCNC(=N)N)C(=O)c2nc3ccccc3s2)NC(=O)[C@H](CC(C)C)NC1=O
Result string: 78%

Query string: Data request, read-out remaining at 2 h, for CC(=O)N[C@H]1Cc2ccc(cc2)OC/C=C\CNC(=O)C[C@@H](C(=O)N[C@@H](CCCNC(=N)N)C(=O)c2nc3ccccc3s2)NC(=O)[C@H](CC(C)C)NC1=O
Result string: 81%
